Test system: p53 signaling (p53RE-bla HCT-116 cells)
assay.text: cells
details: Homo sapiens, HCT-116, read-out: p53 activation efficacy, cherry pick confirmation
Where a name gives a salt, the structure may show the parent alone.
recorded.metric: Emax (%)
Write the number in % without appending the unit.

Challenge: # Emax lookup, item `COP(=O)(OC)O/C(=C\Cl)c1cc(Cl)c(Cl)cc1Cl`
Response given: 115

Challenge: # Emax lookup, item `c1ccc2c(c1)[nH]c1cnccc12`
Response given: 71

Challenge: # Emax lookup, item `COP(=S)(OC)Oc1nc(Cl)c(Cl)cc1Cl`
Response given: 62.8

Challenge: # Emax lookup, item `Cc1cc(OC(=O)N(C)C)nn1C(=O)N(C)C`
Response given: 33.8

Challenge: # Emax lookup, item CCN(C)C(=O)Oc1cccc([C@H](C)N(C)C)c1 [Rivastigmine tartrate]
Response given: 32.8

Challenge: # Emax lookup, item `CCCCSP(=O)(SCCCC)SCCCC`
Response given: 41.6

Challenge: # Emax lookup, item `CNC(=O)Oc1cc(C)cc(C(C)C)c1`
Response given: 40.2

Challenge: # Emax lookup, item COP(N)(=S)Oc1ccccc1C(=O)OC(C)C (centres unmarked)
Response given: 78.7

Challenge: # Emax lookup, item `COP(=S)(OC)Oc1ccc([N+](=O)[O-])c(C)c1`
Response given: 93.3

Challenge: # Emax lookup, item CCSC(=O)N1CCCCCC1 [Molinate]
Response given: 39.9

Challenge: # Emax lookup, item `CCOP(=S)(OCC)SCSC(C)(C)C`
Response given: 54.3

Challenge: # Emax lookup, item CCOP(=S)(NC(C)C)Oc1ccccc1C(=O)OC(C)C (centres unmarked)
Response given: 42.6

Challenge: # Emax lookup, item `COc1c2ccoc2cc2oc(=O)ccc12`
Response given: 62.5

Challenge: # Emax lookup, item `CCOP(=S)(OCC)Oc1cnc2ccccc2n1`
Response given: 34.3

###

System: p53 signaling (p53RE-bla HCT-116 cells)
assay.text: cells
Format: cell-based
details: Homo sapiens, HCT-116, read-out: p53 activation EC50, cherry pick confirmation
recorded.metric: log10(EC50) (log10 of the value in µM)
Heads up, the numbers here are log10 of EC50 in µM units.

Challenge: # log10(EC50) lookup, item `CC[C@@]1(O)C(=O)OCc2c1cc1n(c2=O)Cc2c-1nc1ccccc1c2/C=N/OC(C)(C)C`
Response given: -0.46

Challenge: # log10(EC50) lookup, item `COC(=O)Nc1nc2ccccc2[nH]1`
Response given: 1.08

Challenge: # log10(EC50) lookup, item `CCCCNC(=O)n1c(NC(=O)OC)nc2ccccc21`
Response given: 0.95

Challenge: # log10(EC50) lookup, item `O=Nc1ccc(Nc2ccccc2)cc1`
Response given: 1.44

Challenge: # log10(EC50) lookup, item `C#C[C@]1(O)CC[C@H]2[C@@H]3CCc4cc(O)ccc4[C@H]3CC[C@@]21C`
Response given: 0.56

###

Tested on: p53 signaling (p53RE-bla HCT-116 cells)
assay.text: cells
details: Homo sapiens, HCT-116
recorded.metric: pEC50
Lab note: report pEC50 as minus log10 of the concentration in molar units, number only.

Challenge: Query pEC50 on p53 signaling (p53RE-bla HCT-116 cells) for `c1ccc2cc3c(cc2c1)-c1cccc2cccc-3c12`
Response given: 4.43

Challenge: Query pEC50 on p53 signaling (p53RE-bla HCT-116 cells) for `COP(=S)(OC)Oc1cc(Cl)c(I)cc1Cl`
Response given: 4.49

Challenge: Query pEC50 on p53 signaling (p53RE-bla HCT-116 cells) for `Cc1cccc2c1cc1ccc3cccc4ccc2c1c34`
Response given: 4.46

Challenge: Query pEC50 on p53 signaling (p53RE-bla HCT-116 cells) for Cc1ccccc1OP(=O)(Oc1ccccc1C)Oc1ccccc1C [Tri-o-cresyl phosphate]
Response given: 5.27

###

System: p53 signaling (p53RE-bla HCT-116 cells)
assay.text: cells
Assay type: cell-based
recorded.metric: Efficacy, p53 activation, primary screening
Lab note: write the figure by itself, no unit.

Challenge: # Efficacy, p53 activation, primary screening lookup, item Nc1cnn([C@@H]2O[C@H](CO)[C@@H](O)[C@H]2O)c(=O)n1 [6-Azacytidine]
Response given: 56.623

Challenge: # Efficacy, p53 activation, primary screening lookup, item c1cc(OCC2CO2)ccc1Cc1ccc(OCC2CO2)cc1 (stereo not drawn) [Bis[4-(glycidyloxy)phenyl]methane]
Response given: 46.3017

Challenge: # Efficacy, p53 activation, primary screening lookup, item COc1cccc2c1cc([N+](=O)[O-])c1c(C(=O)[O-])cc3c(c12)OCO3.[Na+] [Sodium aristolochate-I]
Response given: 50.4333

Challenge: # Efficacy, p53 activation, primary screening lookup, item O=[Se](O)O [Selenious acid]
Response given: 32.672

Challenge: # Efficacy, p53 activation, primary screening lookup, item CCC[CH2][Sn]([Cl])([Cl])[CH2]CCC [Dibutyltin dichloride]
Response given: 73.9367

###

System: p53 signaling (p53RE-bla HCT-116 cells)
Counter-ions that a name gives are not always drawn.

compound | p53 activation efficacy
O=C(O)Cc1cc(I)c(Oc2ccc(O)c(I)c2)c(I)c1 [Tiratricol] | inactive
C[C@]12CC[C@H]3[C@@H](CC[C@@]45O[C@@H]4C(O)=C(C#N)C[C@]35C)[C@@H]1CC[C@@H]2O [Trilostane] | inactive
Nc1ccn([C@@H]2O[C@H](CO)[C@@H](O)[C@@H]2O)c(=O)n1 [Cytarabine hydrochloride] | inactive

Where these numbers come from: paper PMC9151520
